Reference for the values: patent US8580825B2

study.system: recombinant human FLAP protein (Homo sapiens, UniProt P20292)
Sequence (P20292 1-161): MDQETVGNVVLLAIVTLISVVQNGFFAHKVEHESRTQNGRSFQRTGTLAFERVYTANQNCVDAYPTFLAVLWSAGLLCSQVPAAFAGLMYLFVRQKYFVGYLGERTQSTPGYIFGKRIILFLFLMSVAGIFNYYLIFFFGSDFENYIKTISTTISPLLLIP
experiment.notes: FLAP binding assay (Scintillation Proximity Assay, displacement of [125I]L-691,831)
experimental.setup: read-out: FLAP SPA IC50
reported.endpoint: IC50 (nM)

**Query** Entry CC(C)[C@](C)(c1ccc(-c2cnc(N)cn2)nc1)c1noc(-c2cnc(N3CCNCC3)cn2)n1 has what IC50?
**Result** 7.8

**Query** Any idea what its IC50 is? The compound is CNc1cnc(-c2nc(C(C)(c3ccc(-c4cnc(N)nc4)nc3)C(C)C)no2)cn1 (stereo not drawn)
**Result** 2.3

**Query** For the compound CC(C)C(C)(c1ccc(-c2cnc(N)nc2)nc1)c1noc(-c2cn[nH]c2)n1 (stereo not drawn) , what IC50 is on record?
**Result** 3.9

**Query** Dear colleague, I am looking for the recorded IC50 of the following compound: CC(C)(O)Cn1cc(-c2nc([C@](C)(c3ccc(-c4ccc(N)nc4)nc3)C3CC3)no2)cn1
**Result** 350

**Query** If you can, please state the reported IC50 value of CC(c1ccc(-c2cnc(N)nc2)nc1)(c1noc(-c2cn[nH]c2)n1)C1CC1 (stereo not drawn) .
**Result** 6.3

**Query** Suppose we examine the compound COCCNC(=O)Cn1cc(-c2nc([C@@](C)(c3ccc(-c4cnc(N)nc4)nc3)C(C)C)no2)cn1 ; what IC50 value has been reported?
**Result** 24

[a] CNc1cnc(-c2ccc([C@](C)(c3noc(-c4cnn(CC(C)(C)O)c4)n3)C3CC3)cn2)cn1
[b] COCCOCCn1cc(-c2nc(C(C)(C)c3ccc(-c4cnc(N)nc4)nc3)no2)cn1
[c] CCNc1ccc(-c2nc(C(C)(c3ccc(-c4cnc(N)nc4)nc3)C(C)C)no2)nn1 (stereo not drawn)
**Query** Rank order required: IC50, descending. Answer by writing out the labels in the requested order.
**Result** b, a, c

---

study.system: recombinant human FLAP protein (Homo sapiens, UniProt P20292)
Sequence (P20292 1-161): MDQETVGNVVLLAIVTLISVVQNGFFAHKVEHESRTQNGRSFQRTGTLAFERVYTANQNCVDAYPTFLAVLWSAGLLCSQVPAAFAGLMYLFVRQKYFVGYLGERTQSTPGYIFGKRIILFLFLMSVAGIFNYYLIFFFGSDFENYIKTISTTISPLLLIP
experiment.notes: FLAP binding assay (Scintillation Proximity Assay, displacement of [125I]L-691,831)
experimental.setup: read-out: FLAP SPA IC50
reported.endpoint: IC50 (nM)

// worked examples, IC50 included
**Query** Form field - read-out: IC50; system: recombinant human FLAP protein (Homo sapiens, UniProt P20292); submitted item: C[C@@](c1ccc(-c2cnc(N)nc2)nc1)(c1noc(-c2cnc(N3CCNCC3)cn2)n1)C1CC1 [Example 134]
**Result** 7.2

**Query** Provide value of IC50 for this record tested with recombinant human FLAP protein (Homo sapiens, UniProt P20292): CC(C)[C@](C)(c1ccc(-c2cnc(N)nc2)nc1)c1noc(-c2cnn(CC#N)c2)n1 [Example 129]
**Result** 8.1

[a] COCCOCCn1cc(-c2nc(C(C)(c3ccc(-c4cnc(N)nc4)nc3)C(C)C)no2)cn1 (centres unmarked) [Example 30]
[b] CC(O)Cn1cc(-c2nc(C(C)(c3ccc(-c4cnc(N)nc4)nc3)C(C)C)no2)cn1 (centres unmarked) [Example 1]
**Query** Exercise: compare a and b ; which one has the greater IC50? To answer, give the label that identifies your chosen option.
**Result** a

---

study.system: recombinant human FLAP protein (Homo sapiens)
experiment.notes: FLAP binding assay (Scintillation Proximity Assay, displacement of [125I]L-691,831)
experimental.setup: read-out: FLAP SPA IC50
pIC50: −log10 of the molar value.
reported.endpoint: pIC50

**Query** For the compound CC(C)C(C)(c1ccc(-c2cnc(N)nc2)nc1)c1noc(-c2ccc(I)c(Br)c2)n1 (centres unmarked) , what pIC50 is on record?
**Result** 7.19

**Query** Which pIC50 value is on record for CO[C@@H]1CCN(C(=O)Cn2cc(-c3nc([C@@](C)(c4ccc(-c5cnc(N)nc5)nc4)C4CC4)no3)cn2)C1 ?
**Result** 7.14

**Query** Which pIC50 value is on record for CNC(=O)Cn1cc(-c2nc([C@](C)(c3ccc(-c4cnc(N)nc4)nc3)C(C)C)no2)cn1 ?
**Result** 7.15

**Query** pIC50 lookup needed for CC(C)(O)Cn1cc(-c2nc([C@@](C)(c3ccc(-c4cnc(N)c(F)c4)nc3)C3CC3)no2)cn1 , thanks.
**Result** 7.19

**Query** Query (compound): CC(C)[C@@](C)(c1ccc(-c2cnc(N)nc2)nc1)c1noc(-c2cnn(C)c2)n1 ; field requested: pIC50
**Result** 7.12

---

study.system: recombinant human FLAP protein (Homo sapiens)
experiment.notes: FLAP binding assay (Scintillation Proximity Assay, displacement of [125I]L-691,831)
experimental.setup: read-out: FLAP SPA IC50
reported.endpoint: IC50 (nM)

Here is how some compounds turned out for IC50.
**Query** Item CN(C)C(=O)Cn1cc(-c2nc([C@@](C)(c3ccc(-c4cnc(N)nc4)nc3)C3CC3)no2)cn1 has what recorded IC50?
**Result** 76

**Query** Requested field: IC50. Item: CC(C)C(C)(c1ccc(-c2cnc(N)nc2)nc1)c1noc(-c2cnc(N3CCNCC3)cn2)n1 (centres unmarked)
**Result** 10.9

**Query** Any idea what its IC50 is? The compound is CN(C)C(=O)Cn1cc(-c2nc(C(C)(c3ccc(-c4cnc(N)nc4)nc3)C3CC3)no2)cn1 (centres unmarked)
**Result** 110

[1] CC(C)[C@@](C)(c1ccc(-c2cnc(N)nc2)nc1)c1noc(-c2cnn(CC(F)F)c2)n1
[2] CC(c1ccc(-c2cnc(N)nc2)nc1)(c1noc(-c2cnn(C3COC3)c2)n1)C1CC1 (centres unmarked)
**Query** Lab log: flag the item ( 1 or 2 ) with the smaller IC50 figure. Respond with the label that goes with your answer.
**Result** 2
(2: 8.7 nM, 1: 141 nM)

---

study.system: recombinant human FLAP protein (Homo sapiens)
Sequence (P20292 1-161): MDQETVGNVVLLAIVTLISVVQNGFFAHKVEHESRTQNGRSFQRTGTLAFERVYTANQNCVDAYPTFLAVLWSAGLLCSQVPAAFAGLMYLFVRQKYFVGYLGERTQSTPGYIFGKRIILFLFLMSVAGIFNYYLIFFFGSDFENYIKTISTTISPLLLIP
experiment.notes: FLAP binding assay (Scintillation Proximity Assay, displacement of [125I]L-691,831)
experimental.setup: read-out: FLAP SPA IC50
reported.endpoint: IC50 (nM)

**Query** // map C[C@@](c1ccc(-c2cnc(N)nc2)nc1)(c1noc(-c2cnn(C3COC3)c2)n1)C1CC1 to recorded IC50 (system: recombinant human FLAP protein (Homo sapiens))
**Result** 8

**Query** Notebook: pull reported IC50 for recombinant human FLAP protein (Homo sapiens), entry CCNc1cnc(-c2nc([C@](C)(c3ccc(-c4cnc(N)nc4)nc3)C(C)C)no2)cn1
**Result** 7.9

**Query** I'm curious: which IC50 was measured for CC(C)[C@](C)(c1ccc(-c2ccc(N)nc2)nc1)c1noc(-c2cnc(N3CCNCC3)cn2)n1 tested on recombinant human FLAP protein (Homo sapiens)?
**Result** 11

**Query** Notebook: pull reported IC50 for recombinant human FLAP protein (Homo sapiens), entry C[C@@](c1ccc(-c2cnc(N)nc2)nc1)(c1noc(-c2cn[nH]c2)n1)C1CC1
**Result** 8.7

**Query** Lab note: need IC50 for CC(C)[C@](C)(c1ccc(-c2cnc(N)nc2)nc1)c1noc(-c2cnn(CC(=O)N(C)C3CC3)c2)n1 on recombinant human FLAP protein (Homo sapiens), anyone have it?
**Result** 13

**Query** # returns recorded IC50 (system: recombinant human FLAP protein (Homo sapiens)) for Cn1cc(-c2nc(C(C)(c3ccc(-c4cnc(N)nc4)nc3)C3CC3)no2)cn1 (stereo not shown)
**Result** 9.5

**Query** Record CC(C)[C@](C)(c1ccc(-c2cnc(N)nc2)nc1)c1noc(-c2cnn(C3CCS(=O)(=O)C3)c2)n1 (stereo partly shown) : what is its IC50 with recombinant human FLAP protein (Homo sapiens)?
**Result** 9.9

---

study.system: recombinant human FLAP protein (Homo sapiens)
Construct: made in house; host or cells: Sf9 insect cells (100,000xg membrane fraction used)
experiment.notes: FLAP binding assay (Scintillation Proximity Assay, displacement of [125I]L-691,831)
experimental.setup: read-out: FLAP SPA IC50
pIC50: −log10 of the molar value.
reported.endpoint: pIC50

**Query** Any idea what its pIC50 is? The compound is CN(C(=O)Cn1cc(-c2nc([C@@](C)(c3ccc(-c4cnc(N)nc4)nc3)C3CC3)no2)cn1)C(C)(C)C
**Result** 8.00

**Query** # query: pIC50 of entry Cc1nc(N)cnc1-c1ccc([C@](C)(c2noc(-c3cnn(CC(C)(C)O)c3)n2)C2CC2)cn1
**Result** 7.39

**Query** Recorded pIC50 for CC(C)[C@](C)(c1ccc(-c2cnc(N)cn2)nc1)c1noc(-c2cnn(C)c2)n1 , please?
**Result** 9.85

[A] CC(C)CNC(=O)Cn1cc(-c2nc([C@@](C)(c3ccc(-c4cnc(N)nc4)nc3)C(C)C)no2)cn1
[B] CC(C)[C@](C)(c1ccc(-c2cnc(N)nc2)nc1)c1noc(-c2cnc(NC(C)(C)CO)cn2)n1
**Query** Please indicate which item has the smaller measured pIC50: A versus B Your answer should be the label of the entry you select.
**Result** B
(B: 7.59, A: 7.85)
